The measurements presented in this section are drawn from the supplement of paper PMC10567573.

B1: NECAB1 (parent)
chain: FSPNSPQFNVSGPGLLEEDNQWMT

variants of: B1; experiment: protein stability index of a GFP-peptide fusion (GPS, HEK-293T) (PSI 1-6); higher = more stable; conditions: c terminus: a fixed tail appended;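 also: lentivirally expressed fusions sorted by FACS into six bins by GFP to DsRed ratio, PSI derived from sequencing read proportions per bin multiplied by bin number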
Could you please report measured protein stability index for the items listed next?
Give bare numbers.

Some variants with recorded protein stability index:
Summary for this variant, F1N : protein stability index is 4.63

Summary for this variant, N20T : protein stability index is 3.19

Summary for this variant, S5W : protein stability index is 2.27

For every listed record, write down its protein stability index.
1. P13D
2. F8L

A:
1. 3.46
2. 3.04

For every listed record, write down its protein stability index.
1. S5D
2. D19S
3. Q7K
4. V10Q
5. F8A
6. S11Q
7. E17Y
8. S5Y

A:
1. 4.04
2. 2.33
3. 2.27
4. 3.32
5. 4.17
6. 3.09
7. 2.46
8. 1.94

For every listed record, write down its protein stability index.
1. F8N
2. G14V
3. N20Y
4. Q7H
5. N20A
6. Q7M
7. L16V
8. P6T

A:
[4.29, 2.89, 2.26, 2.94, 3.29, 2.02, 3.18, 2.86]

For every listed record, write down its protein stability index.
1. M23D
2. N20P
3. V10I
4. Q21V
5. D19P

A:
[4.65, 3.28, 3.09, 1.72, 2.03]
